Target: Cbl-b (Homo sapiens)
Sequence (Q13191 36-427): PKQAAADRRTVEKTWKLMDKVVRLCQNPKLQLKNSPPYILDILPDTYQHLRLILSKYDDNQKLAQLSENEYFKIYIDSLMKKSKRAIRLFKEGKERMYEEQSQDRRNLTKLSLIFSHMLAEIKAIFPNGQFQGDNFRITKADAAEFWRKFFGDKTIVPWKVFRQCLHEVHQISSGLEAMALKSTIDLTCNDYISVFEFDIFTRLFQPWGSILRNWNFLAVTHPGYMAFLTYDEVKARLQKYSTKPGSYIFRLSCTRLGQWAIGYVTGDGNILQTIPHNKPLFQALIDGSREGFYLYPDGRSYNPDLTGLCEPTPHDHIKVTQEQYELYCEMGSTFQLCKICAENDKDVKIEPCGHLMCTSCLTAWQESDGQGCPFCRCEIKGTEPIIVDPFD
Assay: Cbl-b inhibition assay (Cbl-b activity assay, FRET, Biological Example 1; 100 mM NaCl, 60 nM Src kinase)
Type: biochemical
Details: upper bound stated in text lists; read-out: IC50 values in the Cbl-b inhibition assay of Biological Example 1
From the text: FIG. 1A and FIG. 1B show a series of diagrams depicting the activity assay utilized to assay inhibition of Cbl-b activity by a Cbl-b inhibitor. FIG. 1A: The activity assay mixture comprises an N-terminal biotinylated Avi-tagged Cbl-b, an E2 enzyme (i.e., UbcH5B) irreversibly conjugated to Bodipy-Fluorescein tagged ubiquitin (i.e., UbcH5B-Ub), a Src kinase, streptavidin-terbium, and assay buffer. […]
pIC50: −log10 of the molar value.
Provide the reported pIC50 of each item.

molecule	property_name	result
C[C@H](Cc1nncn1C)c1cc(-c2cncs2)nc(N2Cc3c(cccc3C(F)(F)F)C2=O)c1 [Example 682]	pIC50	≥ 6.00
C[C@H](Cc1nncn1C)c1cccc(NC(=O)c2cc(C(=O)N[C@H]3CCNC3)ccn2)c1 [Compound 248]	pIC50	≥ 5.00
Cn1cnnc1CC1(c2cccc(N3Cc4c(cc(N5CC(C(F)F)C5)nc4C4CC4)C3=O)c2)COC1 [Example 609]	pIC50	≥ 7.00
Cn1cnnc1OC1(c2cccc(N3Cc4c(cc(CN5CCC(F)CC5)cc4C(F)(F)F)C3=O)c2)COC1 [Example 700]	pIC50	≥ 6.52
Cn1cnnc1CC1(c2cccc(N3Cc4c(cc(C(N5CCCC5)C(F)(F)F)cc4C(F)(F)F)C3=O)c2)COC1 (stereo not shown) [Example 581]	pIC50	≥ 7.00

Lab note: each molecule below needs its pIC50 filled in.
1. Cn1cnnc1CC1(c2cccc(N3Cc4c(cc(CN5CC6(CC6)C5)cc4C(F)(F)F)C3=O)c2)COC1 [Compound 487]
2. Cn1cnnc1CC1(c2cccc(N3Cc4c(cc(CN5CCC(F)CC5)cc4C(F)(F)F)C3=O)c2)COC1 [Compound 489]

OUT:
1. ≥ 7.00
2. ≥ 7.00

Sourced from patent US20220324835A1
